- Tested on: biotinyl-Trp-oxazolone
- Protocol Details: self-aminoacylation, catalytic enhancement (BWO) (fold over background); higher = more active; k-Seq, kA / k0A0; sequences stand for … in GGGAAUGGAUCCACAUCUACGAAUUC…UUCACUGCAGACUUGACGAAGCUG
Fewer inactive variants are shown than the library holds.
Hi there, I'd appreciate the recorded self-aminoacylation for every entry that follows.
Give a plain numeric answer without units written out.

## Task Provide only the value of recorded self-aminoacylation for CCACACUUCAAGACAUCGGUC [Fam1B.1 aminoacylation ribozyme variant]
## Result 0.762

## Task Provide only the value of recorded self-aminoacylation for AUUAACCUGGUCAUCGUGUGA [Fam2.1 aminoacylation ribozyme variant]
## Result 3.69

## Task Provide only the value of recorded self-aminoacylation for AUUACCCUGGUCACCGAGUUA [Fam2.1 aminoacylation ribozyme variant]
## Result 2.34

## Task Provide only the value of recorded self-aminoacylation for CUACUUCAAUCAAUCGGUCUC [Fam1A.1 aminoacylation ribozyme variant]
## Result 14.9
